# Stated conditions: in acetic acid, 293.15 K
Readout label: solubility (mole fraction)
Simply state the number, no unit and no words.

Input line: Quickly give me recorded solubility (mole fraction) for `O=C(O)CCP(=O)([O-])c1ccccc1.[Na+]`
Output line: 0.0169

Input line: Quickly give me recorded solubility (mole fraction) for `O=C([O-])CCP(=O)([O-])c1ccccc1.[Na+].[Na+]`
Output line: 0.000543
